# System: Human immunodeficiency virus 1
# Test name: Antiviral activity against R5 tropic HIV1 BAL infected in human TZM-bl cells assessed as inhibition of virus-induced cytopathic effect
# Type: functional, organism-based
# Measurement context: Human immunodeficiency virus 1, BAL
Recorded pIC50 by entry
Lab note: report pIC50 as minus log10 of the concentration in molar units, number only.

>>> reported_result("H-WVNQLAVLGLPAVDAAVA-OH")
4.02
>>> reported_result("H-SDRDTVVELSEWGVPCAT-OH")
3.30

input: What value of pIC50 has been reported for the following substance? H-SWFASTGGRDSKIDVWSL-OH
output: 3.39

input: What value of pIC50 has been reported for the following substance? H-FCQAIGWGDPITHWSHGQ-OH
output: 3.90

input: What value of pIC50 has been reported for the following substance? H-LQEVDAGNFIPPPRWLLL-OH
output: 3.53

----------
# Test system: Human immunodeficiency virus 1
# Test name: Antiviral activity against R5 tropic HIV1 HXB2 infected in human PBMC cells assessed as concentration at which p24 antigen produced after 7 days by ELISA
# Format: functional
Measured metric: Activity
Please append the unit to your numeric answer.

Solved entries:
>>> reported_result("H-WVNQLAVLGLPAVDAAVA-OH")
"7.8 µM"
>>> reported_result("H-FCQAIGWGDPITHWSHGQ-OH")
"7.8 µM"
>>> reported_result("H-SDRDTVVELSEWGVPCAT-OH")
"31.2 µM"
>>> reported_result("H-SWFASTGGRDSKIDVWSL-OH")
"62.5 µM"

Would you kindly look at the next entry?
input: What value of Activity has been reported for the following substance? H-LQEVDAGNFIPPPRWLLL-OH
output: 7.8 µM

----------
# Test name: Inhibition of HIV1 gp41-induced cell-cell fusion between viral envolop expressing human HeLa cells to CD4 receptor expressing TZM-bl cells
# Type: cell-based, Human immunodeficiency virus 1
Label criterion met when IC50 is strictly below 300 µM; otherwise label criterion not met.

Field: example entries. Status: answers known.
>>> label("H-SDRDTVVELSEWGVPCAT-OH")
"criterion met"
>>> label("H-LVRRRSELMGRRNPVCPG-OH")
"criterion not met"
>>> label("H-PITHWSHGQNRWPLSCPQ-OH")
"criterion not met"
>>> label("H-WVNQLAVLGLPAVDAAVA-OH")
"criterion not met"
>>> label("H-FCQAIGWGDPITHWSHGQ-OH")
"criterion not met"

Now consider a different substance.
input: Below 300 µM on IC50? Entry H-LQEVDAGNFIPPPRWLLL-OH
output: criterion not met

----------
# System: Human immunodeficiency virus 1
# Test name: Antiviral activity against R5 tropic HIV1 BAL infected in human PBMC cells assessed as concentration at which p24 antigen produced after 7 days by ELISA
# Assay type: functional
Measured metric: Activity (µM)
Please respond with the number in µM and leave the unit unwritten.

Solved entries:
>>> reported_result("H-LQEVDAGNFIPPPRWLLL-OH")
15.6
>>> reported_result("H-WVNQLAVLGLPAVDAAVA-OH")
15.6
>>> reported_result("H-SDRDTVVELSEWGVPCAT-OH")
62.5
>>> reported_result("H-SWFASTGGRDSKIDVWSL-OH")
7.8

input: What value of Activity has been reported for the following substance? H-FCQAIGWGDPITHWSHGQ-OH
output: 15.6

----------
# Tested on: Human immunodeficiency virus 1
# Test name: Antiviral activity against R5 tropic HIV1 BAL infected in human TZM-bl cells assessed as inhibition of virus-induced cytopathic effect
# Assay type: functional, organism-based
# Measurement context: Human immunodeficiency virus 1, BAL
Peptide text beside a SMILES is read from it.
Recorded pIC50 by entry
Lab note: report pIC50 as minus log10 of the concentration in molar units, number only.

>>> reported_result("CC[C@H](C)[C@H](NC(=O)[C@H](CS)NC(=O)[C@@H](NC(=O)[C@H](C)NC(=O)[C@H](CS)NC(=O)[C@@H]1CCCN1C(=O)[C@@H](NC(=O)CNC(=O)[C@H](Cc1c[nH]c2ccccc12)NC(=O)[C@H](CCC(=O)O)NC(=O)[C@H](CO)NC(=O)[C@H](CC(C)C)NC(=O)[C@H](CCC(=O)O)NC(=O)[C@@H](NC(=O)[C@@H](NC(=O)[C@@H](NC(=O)[C@@H](N)CC(=O)O)[C@@H](C)O)C(C)C)C(C)C)C(C)C)[C@@H](C)O)C(=O)N[C@@H](CC(C)C)C(=O)O (H-DTVVELSEWGVPCATCIL-OH)")
3.33
>>> reported_result("CC[C@H](C)[C@H](NC(=O)[C@H](CS)NC(=O)[C@@H](NC(=O)[C@H](C)NC(=O)[C@H](CS)NC(=O)[C@@H]1CCCN1C(=O)[C@@H](NC(=O)CNC(=O)[C@H](Cc1c[nH]c2ccccc12)NC(=O)[C@H](CCC(=O)O)NC(=O)[C@H](CO)NC(=O)[C@H](CC(C)C)NC(=O)[C@H](CCC(=O)O)NC(=O)[C@@H](N)C(C)C)C(C)C)[C@@H](C)O)C(=O)N[C@@H](CC(C)C)C(=O)N[C@@H](CC(=O)O)C(=O)N[C@@H](CCCNC(=N)N)C(=O)N[C@@H](CCCNC(=N)N)C(=O)O (H-VELSEWGVPCATCILDRR-OH)")
3.85
>>> reported_result("C[C@@H]1[C@H](O)[C@@H](C)/C=C/C=C/C=C/C=C/C=C/C=C/C=C/[C@H](O[C@@H]2O[C@H](C)[C@@H](O)[C@H](N)[C@@H]2O)C[C@@H]2O[C@](O)(C[C@@H](O)C[C@@H](O)[C@H](O)CC[C@@H](O)C[C@@H](O)CC(=O)O[C@H]1C)C[C@H](O)[C@H]2C(=O)O [AMPHOTERICIN B]")
6.87

Would you kindly look at the next entry?
input: Find pIC50 (Human immunodeficiency virus 1) for the entry CC[C@H](C)[C@H](NC(=O)[C@H](C)NC(=O)[C@H](CCC(N)=O)NC(=O)[C@@H](CS)NC(=O)[C@H](Cc1ccccc1)NC(=O)[C@H](C)NC(=O)[C@@H]1CCCN1C(=O)[C@@H](N)CC(C)C)C(=O)NCC(=O)N[C@@H](Cc1c[nH]c2ccccc12)C(=O)NCC(=O)N[C@@H](CC(=O)O)C(=O)N1CCC[C@H]1C(=O)N[C@H](C(=O)N[C@H](C(=O)N[C@@H](Cc1cnc[nH]1)C(=O)N[C@@H](Cc1c[nH]c2ccccc12)C(=O)N[C@@H](CO)C(=O)O)[C@@H](C)O)[C@@H](C)CC
output: 3.71

----------
# Tested on: Human immunodeficiency virus 1
# Test name: Antiviral activity against R5 tropic HIV1 BAL infected in human TZM-bl cells assessed as inhibition of virus-induced cytopathic effect
# Type: functional, organism-based
# Measurement context: Human immunodeficiency virus 1, BAL
Peptide text beside a SMILES is read from it.
Measured metric: pIC50
Lab note: report pIC50 as minus log10 of the concentration in molar units, number only.

input: What value of pIC50 has been reported for the following compound? CC(C)C[C@H](NC(=O)[C@H](CC(C)C)NC(=O)[C@@H](NC(=O)[C@@H](NC(=O)[C@H](CC(N)=O)NC(=O)CNC(=O)[C@H](CCCNC(=N)N)NC(=O)[C@H](CC(=O)O)NC(=O)[C@H](Cc1c[nH]c2ccccc12)NC(=O)[C@@H](NC(=O)[C@H](CCCCN)NC(=O)[C@H](CCC(=O)O)NC(=O)CNC(=O)[C@@H](N)[C@@H](C)O)C(C)C)C(C)C)[C@@H](C)O)C(=O)N[C@@H](CS)C(=O)N[C@@H](CC(=O)O)C(=O)N[C@@H](CS)C(=O)N1CCC[C@H]1C(=O)O (H-TGEKVWDRGNVTLLCDCP-OH)
output: 3.31

----------
# Test system: HeLa
# Test name: Inhibition of HIV1 gp41-induced cell-cell fusion between viral envolop expressing human HeLa cells to CD4 receptor expressing TZM-bl cells
# Format: cell-based
# Measurement context: Human immunodeficiency virus 1
Measured metric: inhibition

>>> reported_result("H-PITHWSHGQNRWPLSCPQ-OH")
"Dose-dependent effect"
>>> reported_result("H-FCQAIGWGDPITHWSHGQ-OH")
"Dose-dependent effect"
>>> reported_result("H-SDRDTVVELSEWGVPCAT-OH")
"Dose-dependent effect"
>>> reported_result("H-LVRRRSELMGRRNPVCPG-OH")
"Dose-dependent effect"
>>> reported_result("H-HGQNRWPLSCPQYVYGSV-OH")
"Dose-dependent effect"

input: What value of inhibition has been reported for the following substance? H-WVNQLAVLGLPAVDAAVA-OH
output: Dose-dependent effect

input: What value of inhibition has been reported for the following substance? H-LQEVDAGNFIPPPRWLLL-OH
output: Dose-dependent effect

----------
# Test system: Human immunodeficiency virus 1
# Test name: Antiviral activity against R5 tropic HIV1 HXB2 infected in human TZM-bl cells assessed as inhibition of virus-induced cytopathic effect
# Format: functional, organism-based
# Measurement context: Human immunodeficiency virus 1, HXB2, TZM-bl
Peptide text beside a SMILES is read from it.
Measured metric: IC50 (µM)
Please respond with the number in µM and leave the unit unwritten.

input: Find IC50 (Human immunodeficiency virus 1) for the entry CC[C@H](C)[C@H](NC(=O)[C@H](CS)NC(=O)[C@@H](NC(=O)[C@H](C)NC(=O)[C@H](CS)NC(=O)[C@@H]1CCCN1C(=O)[C@@H](NC(=O)CNC(=O)[C@H](Cc1c[nH]c2ccccc12)NC(=O)[C@H](CCC(=O)O)NC(=O)[C@H](CO)NC(=O)[C@H](CC(C)C)NC(=O)[C@H](CCC(=O)O)NC(=O)[C@@H](N)C(C)C)C(C)C)[C@@H](C)O)C(=O)N[C@@H](CC(C)C)C(=O)N[C@@H](CC(=O)O)C(=O)N[C@@H](CCCNC(=N)N)C(=O)N[C@@H](CCCNC(=N)N)C(=O)O (H-VELSEWGVPCATCILDRR-OH)
output: 58.6
